- targetEntity: human MC4R (Homo sapiens)
- Construct: host or cells: HEK-293 cells stably expressing the GScAMP22F split-luciferase cAMP sensor and hMC4R, G418 selection
- Sequence (P32245 whole entry): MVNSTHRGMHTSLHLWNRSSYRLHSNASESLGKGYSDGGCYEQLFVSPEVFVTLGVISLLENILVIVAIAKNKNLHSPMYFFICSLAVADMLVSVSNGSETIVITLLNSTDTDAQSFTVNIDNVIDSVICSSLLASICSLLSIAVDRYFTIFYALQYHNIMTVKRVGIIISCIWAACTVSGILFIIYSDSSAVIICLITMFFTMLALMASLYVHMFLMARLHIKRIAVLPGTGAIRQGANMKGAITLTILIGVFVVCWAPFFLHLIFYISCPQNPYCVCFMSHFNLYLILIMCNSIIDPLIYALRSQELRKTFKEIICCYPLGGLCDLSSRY
- runDescription: split-luciferase cAMP sensor assay, agonist mode (measurement window 1), hMC4R
- Type: cell-based
- testSettings: agonist mode, hMC4R stable cell line; read-out: MC4R cAMP % max activation
Positions of bridges follow the written chain, without caps; N, C: chain ends. Non-standard residues stand in square brackets, D forms with d. Residues, ends and D or L forms follow the SMILES beside them. dBip = N[C@H](Cc1ccc(-c2ccccc2)cc1)C(=O)O; dDip = N[C@@H](C(=O)O)C(c1ccccc1)c1ccccc1; dPhe(4-Br) = N[C@H](Cc1ccc(Br)cc1)C(=O)O; dPhe(4-F) = N[C@H](Cc1ccc(F)cc1)C(=O)O; Cit = NC(=O)NCCC[C@H](N)C(=O)O; Aib = CC(C)(N)C(=O)O
observedProperty: Emax (%)
One number for each entry, in %.

Here is how some compounds turned out for Emax.
CC(=O)N[C@@H](CCCNC(=N)N)C(=O)N[C@H]1CSSC[C@@H](C(N)=O)NC(=O)[C@@H](Cc2c[nH]c3ccccc23)NC(=O)[C@H](CCCNC(=N)N)NC(=O)[C@@H](Cc2ccc(-c3ccccc3)cc2)NC(=O)[C@H](CCCNC(=N)N)NC(=O)[C@@H](C)NC1=O [CTX-1243] (Ac-RC[dA]R[dBip]R[dW]C-NH2; disulfide 2-8 (inferred)): 32
CC(=O)N[C@@H](CCCNC(=N)N)C(=O)N[C@H]1CSSC[C@@H](C(N)=O)NC(=O)[C@@H](Cc2c[nH]c3ccccc23)NC(=O)[C@H](CCCNC(=N)N)NC(=O)[C@@H](Cc2ccc(F)cc2)NC(=O)[C@H](CCCNC(=N)N)NC(=O)[C@@H](C)NC1=O [CTX-1236] (Ac-RC[dA]R[dPhe(4-F)]R[dW]C-NH2; disulfide 2-8): 97
CC(=O)N[C@@H](CCCNC(=N)N)C(=O)N[C@H]1CSSC[C@@H](C(N)=O)NC(=O)[C@@H](Cc2c[nH]c3ccccc23)NC(=O)[C@H](CCCNC(=N)N)NC(=O)[C@@H](Cc2ccc(Br)cc2)NC(=O)[C@@H](CCCNC(=N)N)NC(=O)[C@@H](C)NC1=O [CTX-1250] (Ac-RC[dA][dR][dPhe(4-Br)]R[dW]C-NH2; disulfide 2-8 (inferred)): 8.7
CC(=O)N[C@@H](CCCNC(=N)N)C(=O)N[C@H]1CSSC[C@@H](C(N)=O)NC(=O)[C@H](Cc2c[nH]c3ccccc23)NC(=O)[C@H](CCCNC(=N)N)NC(=O)[C@@H](Cc2ccc(Br)cc2)NC(=O)[C@H](Cc2c[nH]cn2)NC(=O)[C@@H](C)NC1=O [CTX-2206]: 98
CC(=O)N[C@@H](CCCNC(=N)N)C(=O)N[C@H]1CSSC[C@@H](C(N)=O)NC(=O)[C@@H](Cc2c[nH]c3ccccc23)NC(=O)[C@H](CCCNC(N)=O)NC(=O)[C@@H](Cc2ccccc2)NC(=O)[C@H](CCCNC(=N)N)NC(=O)C(C)(C)NC1=O [CTX-1271] (Ac-RC[Aib]R[dF][Cit][dW]C-NH2; disulfide 2-8 (inferred)): 95

Shifting focus to the compound that follows.
What value of Emax has been recorded for this entry: CC(=O)N[C@@H](CCCNC(=N)N)C(=O)N[C@H]1CSSC[C@@H](C(N)=O)NC(=O)[C@@H](Cc2c[nH]c3ccccc23)NC(=O)[C@H](CCCNC(=N)N)NC(=O)[C@@H](C(c2ccccc2)c2ccccc2)NC(=O)[C@H](CCCNC(=N)N)NC(=O)[C@@H](C)NC1=O [CTX-1280] (Ac-RC[dA]R[dDip]R[dW]C-NH2; disulfide 2-8 (inferred))
4

Data credit: patent US20240391954A1
